Where do these numbers come from? They come from patent US12486267B2.

Biological target: UniProt:Q9NR96
Sequence (Q9NR96 26-1032): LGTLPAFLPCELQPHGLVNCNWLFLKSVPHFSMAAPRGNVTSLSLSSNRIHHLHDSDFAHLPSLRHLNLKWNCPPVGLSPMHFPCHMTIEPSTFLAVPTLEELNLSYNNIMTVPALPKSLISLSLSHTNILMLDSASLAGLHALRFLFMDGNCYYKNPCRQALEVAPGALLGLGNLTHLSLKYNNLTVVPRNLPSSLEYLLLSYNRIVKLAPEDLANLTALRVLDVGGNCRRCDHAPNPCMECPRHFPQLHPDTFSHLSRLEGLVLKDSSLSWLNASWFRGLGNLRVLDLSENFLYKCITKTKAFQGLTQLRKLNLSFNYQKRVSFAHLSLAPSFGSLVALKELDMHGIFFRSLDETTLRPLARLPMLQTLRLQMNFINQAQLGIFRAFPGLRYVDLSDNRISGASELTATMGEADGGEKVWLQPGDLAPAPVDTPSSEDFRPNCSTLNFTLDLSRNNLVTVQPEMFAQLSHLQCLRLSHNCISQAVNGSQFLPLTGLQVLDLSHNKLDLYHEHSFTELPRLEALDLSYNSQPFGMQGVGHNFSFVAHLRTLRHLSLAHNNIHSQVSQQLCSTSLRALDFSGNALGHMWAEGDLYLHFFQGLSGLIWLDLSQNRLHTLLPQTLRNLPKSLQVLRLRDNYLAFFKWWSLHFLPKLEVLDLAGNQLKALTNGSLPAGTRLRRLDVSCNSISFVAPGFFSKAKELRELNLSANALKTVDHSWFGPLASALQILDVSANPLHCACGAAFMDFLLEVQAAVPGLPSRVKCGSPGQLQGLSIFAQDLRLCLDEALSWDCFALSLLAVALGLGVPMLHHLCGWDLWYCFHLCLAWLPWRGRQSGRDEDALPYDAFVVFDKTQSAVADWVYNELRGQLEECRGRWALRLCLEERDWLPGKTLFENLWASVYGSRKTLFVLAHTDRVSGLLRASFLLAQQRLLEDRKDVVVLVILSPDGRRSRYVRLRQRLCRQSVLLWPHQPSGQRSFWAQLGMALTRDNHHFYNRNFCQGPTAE
Assay: TLR9 inhibition reporter assay (HEK-Blue cells, SEAP reporter)
Conditions: HEK-Blue cells overexpressing human TLR9; stimulated with ODN2006 5 nM; 22 hour incubation; SEAP readout
pIC50: −log10 of the molar value.
observation-type: pIC50

Use the examples below as a reference point.
molecule	pIC50
CC1CC(c2ccc(N3CC4CCC(C3)N4C(C)C)cc2)Cn2nc(-c3ccc(S(C)(=O)=O)cc3)nc21 (centres unmarked)	5.11
Cc1cc(C2CCN(C3CCN(CC4CCC4)CC3)CC2)cn2cc(-c3ccc(S(C)(=O)=O)cc3)nc12	7.08

(P) CC(C)N1C2CCC1CC(N1CCC(c3cc(F)c4nc(-c5ccc(S(C)(=O)=O)cc5)cn4c3)CC1)C2 (single isomer, unassigned) [Example 69]
(Q) COc1ccc(-c2nc3c(C)cc(-c4ccc(N5CC6CCC(C5)N6C(C)C)cc4)cn3n2)cc1OC
(R) COc1ccc(-c2cn3c(n2)CC[C@@H](C2CCN(C4CC5CCC(C4)N5C(C)C)CC2)C3)cc1OC (single isomer, unassigned) [Example 136]
Would you mind ranking these molecules by ascending pIC50? Show the ranking through the labels, in the order asked for.
Q, R, P
(Q: 5.86, R: 7.11, P: 7.59)

(1) CS(=O)(=O)c1ccc(-c2cn3cc(C4CCN(C5CCCN(C6CCOCC6)CC5)CC4)cc(F)c3n2)cc1 (single isomer, unassigned) [Example 129]
(2) Cc1cc(C2CCN(C3CCN(C(C)C)CC3)CC2)cn2nc(-c3ccc(S(C)(=O)=O)cc3)nc12
Between 1 and 2 , whose recorded pIC50 is greater? Give the chosen item's label as your response.
1
(1: 7.70, 2: 7.10)

(a) Cc1cc(C2CCN(C3CCN(C(C)C)CC3)CC2)cc2nc(-c3ccc(S(C)(=O)=O)cc3)cn12
(b) CS(=O)(=O)c1ccc(-c2cn3cc(C4CCN(C5CCN(C6CCC6)CC5)CC4)cc(F)c3n2)cc1
(c) CC(C)N1CCCC(N2CCC(c3cc(F)c4nc(-c5ccc(S(C)(=O)=O)cc5)cn4c3)CC2)CC1 (single isomer, unassigned) [Example 72]
// ascending sort on recorded pIC50 Could you list the labels in the order requested?
a, b, c
